System: KURAMOCHI
Experiment: drug sensitivity score (DSS2) on cancer cell count; higher = more sensitive; extreme values may be limits of the assay
Conditions: co-cultured fibroblast: BJHTERT; 72 h
Entries and their drug sensitivity score

{"columns": ["COMPOUND", "drug sensitivity score"],
 "data": [
  ["Nc1ncn([C@@H]2O[C@H](CO)[C@@H](O)[C@H]2O)c(=O)n1", "2.8 DSS"],
  ["Nc1nc(OCc2cc(Br)cs2)c2[nH]cnc2n1", "0 DSS"],
  ["Clc1ccc(C(c2ccccc2Cl)C(Cl)Cl)cc1 (configuration not stated)", "0 DSS"],
  ["Cc1ccc(-n2nc(C(C)(C)C)cc2NC(=O)Nc2ccc(OCCN3CCOCC3)c3ccccc23)cc1", "4.2 DSS"],
  ["CN1CC[C@H](c2c(O)cc(O)c3c(=O)cc(-c4ccccc4Cl)oc23)[C@H](O)C1", "19.3 DSS"],
  ["CCCCCOC(=O)Nc1nc(=O)n([C@@H]2O[C@H](C)[C@@H](O)[C@H]2O)cc1F", "3.3 DSS"],
  ["CC(C)Cn1cnc2c(N)nc3ccccc3c21", "0 DSS"],
  ["CC1(C)CNc2cc(NC(=O)c3cccnc3NCc3ccncc3)ccc21", "0.3 DSS"],
  ["O=C(O)c1ccc(CN2CCC(CN[C@@H]3C[C@H]3c3ccccc3)CC2)cc1", "0.9 DSS"],
  ["CC(=O)O[C@H]1C(=O)[C@@]2(C)[C@H]([C@H](OC(=O)c3ccccc3)[C@]3(O)C[C@H](OC(=O)[C@H](O)[C@@H](NC(=O)c4ccccc4)c4ccccc4)C(C)=C1C3(C)C)[C@]1(OC(C)=O)CO[C@@H]1C[C@@H]2O", "23.2 DSS"],
  ["CN(C)Cc1c(C(=O)NCCOc2ccc(C(=O)NO)cc2)oc2ccccc12", "17.2 DSS"],
  ["CC(C)(C)NC(=O)[C@H]1CC[C@H]2[C@@H]3CC[C@H]4NC(=O)C=C[C@]4(C)[C@H]3CC[C@]12C [Finasteride]", "0 DSS"],
  ["CC/C(=C(\\c1ccccc1)c1ccc(OCCN(C)C)cc1)c1ccccc1", "1.3 DSS"],
  ["c1cc(CN2CCCNCCNCCCNCC2)ccc1CN1CCCNCCNCCCNCC1", "0 DSS"],
  ["Nc1nc2[nH]cc(CCc3ccc(C(=O)N[C@@H](CCC(=O)O)C(=O)O)cc3)c2c(=O)[nH]1", "10.1 DSS"],
  ["CCS(=O)(=O)Nc1ccc(Oc2ccc(F)cc2F)c(-c2cn(C)c(=O)c3[nH]ccc23)c1", "22.6 DSS"],
  ["CN1CCc2c(c3ccccc3n2Cc2ccc(C(=O)NO)cc2)C1", "0 DSS"]
]}
